# System: Vero E6 infected with SARS-CoV-2
# experimental.details: inhibition of SARS-CoV-2 cytopathic effect; higher = more antiviral protection, active = above 15
# test.context: 100 nM; 48 h
# Lookup of reported inhibition of SARS-CoV-2 cytopathic effect keyed by entry
// return numeric value only (unit: %, not printed)

Some solved entries appear below for comparison.
O=C(Oc1cccc2cccnc12)c1ccccc1    -0.45
CN(C)CCOC(=O)COc1ccc(Cl)cc1 [meclofenoxate]    1.17

For CC1(C)O[C@@H]2[C@@H](CO[C@@]3(COS(N)(=O)=O)OC(C)(C)O[C@@H]23)O1 [topiramate] on Vero E6 infected with SARS-CoV-2, measured inhibition of SARS-CoV-2 cytopathic effect was -2.21

inhibition of SARS-CoV-2 cytopathic effect on Vero E6 infected with SARS-CoV-2 for CCOc1ccccc1C(N)=O [ethenzamide] is 2.44

inhibition of SARS-CoV-2 cytopathic effect of O=C(C[S+]([O-])C(c1ccccc1)c1ccccc1)NO (centres undefined) , assay on Vero E6 infected with SARS-CoV-2, is -3.32

Measured inhibition of SARS-CoV-2 cytopathic effect (Vero E6 infected with SARS-CoV-2), entry C=C1/C(=C\C=C2/CCC[C@]3(C)[C@@H]([C@H](C)CCCC(O)(C(F)(F)F)C(F)(F)F)CC[C@@H]23)C[C@@H](O)C[C@@H]1O : -1.28

Readout inhibition of SARS-CoV-2 cytopathic effect for C=CCN(C)CCCCCCOc1ccc(C(=O)c2ccc(Br)cc2)c(F)c1 , test system Vero E6 infected with SARS-CoV-2, was 2.12

Test item Cc1ccccc1NC(=O)Nc1ccc(CC(=O)N(C)[C@@H](CC(C)C)C(=O)NCC[C@H](NC(=O)[C@@H]2CCCN2S(=O)(=O)c2cc(Cl)cc(Cl)c2)C(=O)O)cc1 ; Vero E6 infected with SARS-CoV-2; reported inhibition of SARS-CoV-2 cytopathic effect was -0.65

Lab note: compound CCOC(=O)C1=CCCC[C@H]1S(=O)(=O)Nc1ccc(F)cc1Cl tested on Vero E6 infected with SARS-CoV-2; recorded inhibition of SARS-CoV-2 cytopathic effect was 3.21
